Assay: AUC in Sprague-Dawley rat at 10 mg/kg, po by LC-MS analysis
Format: ADME, organism-based
Details: in vivo

- compound: "Cc1c(OCC(O)CN2CCN(C)CC2)cn2ncnc(Oc3ccc(NC(=O)C4(C(=O)Nc5ccc(F)cc5)CC4)cc3F)c12 (stereo unspecified)"
  unit_of_measure: "ng·h/mL"
  AUC: 1170

* * *

Experiment: Half life in Sprague-Dawley rat at 10 mg/kg, po by LC-MS analysis
Assay type: ADME, organism-based
Conditions: in vivo

- molecule: "Cc1c(OCC(O)CN2CCN(C)CC2)cn2ncnc(Oc3ccc(NC(=O)C4(C(=O)Nc5ccc(F)cc5)CC4)cc3F)c12 (stereo unspecified)"
  half-life: "5 h"

* * *

Assay: Half life in Sprague-Dawley rat at 2 mg/kg, iv by LC-MS analysis
Assay type: ADME, organism-based
Conditions: in vivo

- molecule: "Cc1c(OCC(O)CN2CCN(C)CC2)cn2ncnc(Oc3ccc(NC(=O)C4(C(=O)Nc5ccc(F)cc5)CC4)cc3F)c12 (stereo unspecified)"
  half-life, h: 2.16

* * *

Assay: Oral bioavailability in Sprague-Dawley rat at 10 mg/kg by LC-MS analysis
Format: ADME, organism-based
Conditions: in vivo
value_type: bioavailability (%)

- compound: "Cc1c(OCC(O)CN2CCN(C)CC2)cn2ncnc(Oc3ccc(NC(=O)C4(C(=O)Nc5ccc(F)cc5)CC4)cc3F)c12 (stereo unspecified)"
  value_type: "bioavailability"
  unit_of_measure: "%"
  numeric_result: 98.1

* * *

Experiment: AUC in Sprague-Dawley rat at 2 mg/kg, iv by LC-MS analysis
Type: ADME, organism-based
Details: in vivo

- compound: "Cc1c(OCC(O)CN2CCN(C)CC2)cn2ncnc(Oc3ccc(NC(=O)C4(C(=O)Nc5ccc(F)cc5)CC4)cc3F)c12 (stereo unspecified)"
  AUC (ng·h/mL): 239

* * *

Assay: physchem

- compound: "COc1cc2nccc(Oc3ccc(NC(=O)C4(C(=O)Nc5ccc(F)cc5)CC4)cc3)c2cc1OC.O=C(O)C[C@H](O)C(=O)O [CABOZANTINIB S-MALATE]"
  reading_qualifier: "="
  solubility at 1 h, µg/mL: 52
- compound: "Cc1c(OCC(O)CN2CCN(C)CC2)cn2ncnc(Oc3ccc(NC(=O)C4(C(=O)Nc5ccc(F)cc5)CC4)cc3F)c12 (stereo not drawn)"
  reading_qualifier: "="
  solubility at 1 h, µg/mL: 20.5
- compound: "COc1cc2nccc(Oc3ccc(NC(=O)C4(C(=O)Nc5ccc(F)cc5)CC4)cc3)c2cc1OC [CABOZANTINIB]"
  reading_qualifier: "<"
  solubility at 1 h, µg/mL: 0.1

Values from ChEMBL document CHEMBL4265953
